Source: the Deep4Chem optical property database

// reported absorption maximum for each item listed
# Measurement Protocol: solvent given as SMILES
# Experimental Setup: in O
Readout: absorption maximum (nm)

> print(dat)
                            molecule.smiles  observed.value
1         Oc1c(-c2ccco2)cccc1-c1nc2ccccc2s1             360
2  CC[N+]1(CC)CN2C(=N1)C(C(=O)O)=Cc1ccc(OC)cc12             372
3  O=C(O)CCCCCn1c2ccc(Br)cc2c(=O)c2cc(Br)ccc21             425

---

# Measurement Protocol: solvent given as SMILES
# Experimental Setup: in ClCCl
Known absorption maximum of a selection of molecules
Readout: absorption maximum (nm)

> print(dat)
                            molecule.smiles             readout  quantity.unit  observed.value
1  O=C1c2ccccc2C2=Cc3ccc4ccccc4[n+]3[B-](F)(F)N12  absorption maximum             nm             454
2  Cn1c(=O)c(/N=N/c2ccc(Nc3ccccc3)c(S(=O)(=O)O)c2)c(O)c2ccccc21  absorption maximum             nm             415
3  COc1ccc2c(c1)c1cc(OC)ccc1c1c2c2c(C(=O)NC(C)(C)C)ccc(C(=O)NC(C)(C)C)c2c2c3ccc(OC)cc3c3cc(OC)ccc3c21  absorption maximum             nm             414
4  CC[C@H](C)COc1ccc(C2=C3C(C)=CC(C)=[N+]3[B-](F)(F)n3c(C)cc(C)c32)cc1  absorption maximum             nm             501
5  CC(C)(C)OC(=O)COc1ccc2c(c1)oc(=O)c1c(=O)oc3ccccc3c12  absorption maximum             nm             365
6  O=C1c2ccccc2S(=O)(=O)c2ccc(-n3c4ccccc4c4ccccc43)cc21  absorption maximum             nm             404
7  CC(C)CCCCN1CCc2c1ccc1c3c(ccc21)C(=O)CCC3  absorption maximum             nm             373
